system: KM20L2 colon; assay: NCI tumour cell line growth inhibition, 48 h
READOUT KIND: TGI

> print(dat)
                                   molecule  measured.value
1  CCCCS(=O)CC(CO)NC(=O)/C=C/c1c(C)[nH]c(=O)[nH]c1=O (stereo unspecified)         56.8 µM
2  COc1ccc(-c2nc3c(nc2-c2ccc(OC)cc2)N(C)S(=O)(=O)N=C3N)cc1        > 100 µM
3             Cc1c(N=NN(C)C)cc[n+]([O-])c1C        > 100 µM
4  COc1ccc2c(c1)CCN1C3=C(CCC3)C(=O)C[C@@H]21        > 100 µM
5               COc1cc2ccc(CC(N)=O)cc2cc1OC        > 100 µM
6  CC(C)(C)N=CN(C=C(c1ccccc1)c1ccccc1)C1CCCCC1         46.7 µM

###

tested on: UACC-62 melanoma; assay: NCI tumour cell line growth inhibition, 48 h
Where a SMILES comes first, the peptide text is derived from it. The star is where a group is joined. Boc = CC(C)(C)OC(=O)*; OBn = c1ccc(CO*)cc1
Listing of recorded TGI by entry.

MOLECULE	MODIFIER	TGI [µM]
COc1cc(Nc2nc3ccccc3nc2C(C)C)cc(OC)c1OC	>	100
Cc1nc2ccccc2n1Cc1nnc2n1N=C(c1ccccc1)CS2	=	99.4
CC[C@H]1C=CCC[C@@]2(C[C@@H]3CC[C@@H]4[C@H](C(=O)OCCCCCCCCCCCCCCCC(=O)N(CCCNC(C)=O)C[C@H](CCNC(C)=O)OC(C)=O)[C@]5(CCC[C@@H](C)O5)NC(=[N+]34)N2)O1	=	0.246
CC(=O)OCCOCCN1CCN(c2c(O)c3c(c(O)c2Cl)C(=O)C=CC3=O)CC1	=	2.81
Cc1cc(=O)c2ccccc2n1CCCCCCCCCCn1c(C)cc(=O)c2ccccc21	=	34.9
O=C(COc1ccc(-c2nc3cc(Cl)c(Cl)cc3[nH]2)cc1)N=Nc1c(O)[nH]c2ccccc12	>	100
Cc1ccc(NC(=O)/C(=N\NC(N)=O)c2c(O)c3ccccc3[nH]c2=O)cc1	>	100
Cc1ccc([N+](=O)[O-])cc1S(=O)(=O)Nc1ccc(C2=NN(S(=O)(=O)c3cc([N+](=O)[O-])ccc3C)C(c3ccco3)C2)cc1 (stereo unspecified)	>	100
COC(=O)[C@@H](OC)[C@@H]1Cc2cc3cc(OC4CC(OC5CC(O)C(O)C(C)O5)C(O)C(C)O4)c(C)c(O)c3c(O)c2C(=O)[C@H]1OC1CC(OC2CC(OC3CC(C)(O)C(O)C(C)O3)C(O)C(C)O2)C(O)C(C)O1 (stereo partly specified)	=	0.0469
CC(=O)c1ccc2c(c1)N(CCCN(C)C)c1ccccc1S2	=	29.1
CC(=O)N(C(C)=O)n1nc2c(n1)C(=O)c1ccccc1C2=O	>	100
CN1C(=O)C(=CN(C)c2ccccc2)C(=O)N(C)C1=O	>	100
COc1cc(C(=O)OCCn2[nH]c(-c3ccc(Cl)cc3)nc2=S)cc(OC)c1OC	>	100
Nc1[nH]c(=S)c2c(N)n[nH]c2c1C(=O)Nc1ccc(Cl)cc1	>	100
O=P1(Oc2ccccc2)NCc2ncccc2O1 (stereo unspecified)	>	100
CN(C)c1ccc(/C=N/NC(=O)c2cccc3ccccc23)c(Cl)c1	>	100
CC(=O)OC(=C(C#N)C#N)c1nccnc1C(C)=O	>	20
O[C@H]1[C@H](O)[C@@H](Cn2nnc(-c3ccccc3)c2-c2ccccc2)OCO[C@@H]1Cn1nnc(-c2ccccc2)c1-c1ccccc1	=	11.7
O=S(=O)(O)c1ccccc1N=Nc1ccc(N=Nc2c(O)ccc3ccccc23)c(S(=O)(=O)O)c1	>	100
O=C1Nc2ccccc2/C1=C\c1c(Cl)nc2n1CCS2	=	32.2
CC(C)(C)N=CN(C=C(c1ccccc1)c1ccccc1)C1CCCCC1	>	100
CC(C)(C)OC(=O)NCCCCCCCCCCn1c2c(c3ccccc3c1=O)C(=O)c1ccccc1-2	>	100
O=C(Nc1cccc(-n2cc(-c3ccncc3)c(-c3ccc(O)c(Cl)c3)n2)c1)c1ccc(Cl)c(Cl)c1	=	47.6
O=C1CCCN1CCCN=c1cc2n(-c3ccc(Cl)cc3)c3ccccc3nc-2cc1Nc1ccc(Cl)cc1	=	26.2
Cc1cc(NS(=O)(=O)c2ccc(NC(=O)COC(=O)c3cccc4c(=O)c5ccccc5[nH]c34)cc2)no1	>	100
COc1cc(C2C3=C(COC3=O)Nc3cc4c(cc32)OCO4)cc2c1OCO2 (stereo unspecified)	>	100
Cc1ccc(C(=O)N=Nc2c(O)[nH]c3ccc(Cl)cc23)cc1	=	23.1
CCN(CC)CC(=O)Nc1ccc2c(c1)C(=O)c1ccc(NC(=O)CN(CC)CC)cc1C2=O	>	100
CS/C=C\C(=O)O[C@H]1C[C@@H]2[C@@H](O)c3occ(C)c3C[C@]2(C)[C@@H](C)C1	=	37.9
O=C(Sc1sc(=S)sc1SC(=O)c1ccccc1)c1ccccc1	=	53
Cc1cc2c(cc1C)[n+](Cc1ccc3ccccc3n1)cn2Cc1ccc2ccccc2n1	=	2.1
CCCCCCCCCCCCCCCCOc1ccc(/C=C/C2=[N+](CCCl)CCO2)cc1	>	100
CC(C)CC(NC(=O)C(Cc1ccccc1)NC(=O)C(Cc1ccccc1)NC(=O)OC(C)(C)C)C(=O)OCc1ccccc1 (stereo not drawn) (Boc-Phe-Phe-Leu-OBn; configuration not given here)	>	100
CCn1c(=O)c2c3cc(OC(C)=O)ccc3oc2c2ccc(OC(C)=O)cc21	>	100
Oc1c(CNCCNCc2cc(Cl)cc(Cc3ccccc3)c2O)cc(Cl)cc1Cc1ccccc1	=	10.9
CC#CCCCC1(C)CCCNC1=S (stereo unspecified)	>	10

###

system: RPMI-8226 leukemia; assay: NCI tumour cell line growth inhibition, 48 h
Listed below: TGI values for each entry.
READOUT KIND: TGI

COMPOUND	MEASURED VALUE
CCN(CC)CCNC(=O)c1nn(-c2ccc(Cl)cc2)c2c1CCc1cc(OC)ccc1-2	8.72 µM
CC(=O)OC1[C@H](n2ccnc2)C[C@H]2[C@@H]3CC=C4CC(N5CCCC5)CC[C@]4(C)[C@H]3CC[C@]12C (some centres undefined)	> 100 µM
O=C1CCC2(c3ccccc3)Nc3ccc(Cl)cc3N12 (centres undefined)	> 100 µM
O=S(=O)(O)c1ccccc1N=Nc1ccc(N=Nc2c(O)ccc3ccccc23)c(S(=O)(=O)O)c1	> 100 µM
CCN1C(=O)N(CC)C2C1NN=c1s/c(=C\c3cccc([N+](=O)[O-])c3)c(=O)n12 (centres undefined)	> 100 µM
Cc1cc2c(C(C)C)c(O)c(O)c(C=Nc3ccccc3)c2c(O)c1-c1c(C)cc2c(C(C)C)c(O)c(O)c(C=Nc3ccccc3)c2c1O	> 100 µM
COC(=O)C1=COc2c(n(C)c3ccccc23)-c2ccccc21	> 100 µM
CC(=O)N(C(C)=O)n1nc2c(n1)C(=O)c1ccccc1C2=O	> 100 µM
CCOC(=O)N1N(c2ccccc2)C(=O)C1(c1ccccc1)c1ccccc1	83.5 µM
CC1CC(C(=O)OC2OC(COC3OC(CO)C(OC4OC(C)C(O)C(O)C4O)C(O)C3O)C(O)C(O)C2O)C2CCC3(C)C(=CCC4(C)C3CCC3C(C)(CO)C(O)C(O)CC34C)C2C1C (centres undefined)	49.2 µM
CSc1nc(N)c2c(n1)NC(c1ccccc1)C1CCc3ccccc3C1=N2 (centres undefined)	> 100 µM
Clc1ccc(C2=NOC3C4CCC(C4)C23)cc1 (centres undefined)	> 100 µM
CC1=C/C(=C2/N=C(N(C)C)SS2)C(C)=N1	> 100 µM
CCc1ncnc2cc(OCC3CO3)c(OC)cc12 (centres undefined)	5.38 µM
CC(C)[C@](O)(C(=O)OCC1=CCN2CC[C@@H](O)[C@@H]12)[C@H](C)O	> 375 µM
COc1ccc(C#CC2=C(c3cc(OC)c(OC)c(OC)c3)C(=O)OC2)cc1	3.56 µM
C/C(=C1\C(=O)C(c2ccccc2)N(c2ccccc2)C1=O)c1ccc(Cl)cc1 (centres undefined)	38.1 µM
Cc1ccc(NC(=O)/C(=N\NC(N)=O)c2c(O)c3ccccc3[nH]c2=O)cc1	> 100 µM
Cc1cc2c(cc1C)[n+](Cc1ccc3ccccc3n1)cn2Cc1ccc2ccccc2n1	1.62 µM

###

tested on: HT29 colon; experiment: NCI tumour cell line growth inhibition, 48 h
READOUT KIND: TGI

> print(dat)
                                   compound  measured.value
1  COc1cc2cc(C(=O)N3CC(CCl)c4c3cc(O)c3ccccc43)[nH]c2c(OC)c1OC (stereo not given)         > 50 µM
2  CC(C)(C)N=CN(C=C(c1ccccc1)c1ccccc1)C1CCCCC1        > 100 µM
3  N=C(N)SCc1ccc([N+](=O)[O-])cc1[N+](=O)[O-]         18.9 µM
4  NC(=S)N/N=C1\CCCCC1C(O)(C(F)(F)Cl)C(F)(F)Cl (stereo not given)         > 10 µM
5  C=CCn1c(-c2ccc(Cl)cc2Cl)csc1=Nc1c(C)n(C)n(-c2ccccc2)c1=O         25.3 µM

Where do the numbers come from? From PubChem BioAssay (NCI).
